Task for the reader: assign each of the following sequences its reported recombinant barcode read abundance (log10).
ASSAY NOTES: recombinant barcode read abundance after kanamycin selection (control-corrected) (log10(CPM+1)); higher = more efficient recombination; sequences stand for … in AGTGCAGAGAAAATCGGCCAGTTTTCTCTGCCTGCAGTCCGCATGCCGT…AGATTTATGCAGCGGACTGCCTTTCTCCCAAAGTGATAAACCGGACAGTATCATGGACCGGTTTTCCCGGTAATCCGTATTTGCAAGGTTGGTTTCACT; site = the 11-nt target;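 note: IS621 recombinase and bridge RNA in Escherichia coli cells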
Field format: numeric only.

*Q* Any idea what recombinant barcode read abundance (log10) was measured for TAGTCGACTTGGGTTCTAACCTGTTGCTT (site TAGACGACTAA) ?
*A* 0.652

*Q* Any idea what recombinant barcode read abundance (log10) was measured for GAGAAGTCTTGGGTTCTAACCTGTTGCCT (site GAGCAGTCTAG) ?
*A* 0.133

*Q* Any idea what recombinant barcode read abundance (log10) was measured for TGGCAGCCTTGGGTTCTAACCTGTTGCCT (site TGGCAGACTAG) ?
*A* 0.0766

*Q* Any idea what recombinant barcode read abundance (log10) was measured for CACGAGGCTTGGGTTCTAACCTGTTGCCT (site CACGAGCCTAG) ?
*A* 0.0831

*Q* Any idea what recombinant barcode read abundance (log10) was measured for ACACCGCCTTGGGTTCTAACCTGTTGCCT (site ACACCGCCTAG) ?
*A* 0.299

*Q* Any idea what recombinant barcode read abundance (log10) was measured for TGTAATCCTTGGGTTCTAACCTGTTGCCT (site TGTAATCCTAG) ?
*A* 0.025

*Q* Any idea what recombinant barcode read abundance (log10) was measured for TGTAATGCTTGGGTTCTAACCTGTTGCCT (site TGTAATGCTAG) ?
*A* 0.912

*Q* Any idea what recombinant barcode read abundance (log10) was measured for GCAAGGACTTGGGTTCTAACCTGTTGCAG (site GCAAGGACTCT) ?
*A* 2.6

*Q* Any idea what recombinant barcode read abundance (log10) was measured for GACTTGGCTTGGGTTCTAACCTGTTGCCT (site GACTTGTCTAG) ?
*A* 0.124

*Q* Any idea what recombinant barcode read abundance (log10) was measured for TGTCGCTCTTGGGTTCTAACCTGTTGCCT (site TGTCGCTCTAG) ?
*A* 1.1

*Q* Any idea what recombinant barcode read abundance (log10) was measured for GAGCTTACTTGGGTTCTAACCTGTTGCCT (site GGGCTTACTAG) ?
*A* 0.299

*Q* Any idea what recombinant barcode read abundance (log10) was measured for ACAATAGCTTGGGTTCTAACCTGTTGCTG (site ACACTAGCTCA) ?
*A* 0.0138

*Q* Any idea what recombinant barcode read abundance (log10) was measured for GGTGGGTCTTGGGTTCTAACCTGTTGCGT (site GGTGGGTCTAA) ?
*A* 0.97

*Q* Any idea what recombinant barcode read abundance (log10) was measured for TACCCACCTTGGGTTCTAACCTGTTGCAG (site TACCCACCTCT) ?
*A* 2.41

*Q* Any idea what recombinant barcode read abundance (log10) was measured for GGGCCTACTTGGGTTCTAACCTGTTGCTC (site GGGCCTACTAA) ?
*A* 0.248

*Q* Any idea what recombinant barcode read abundance (log10) was measured for TGAGACTCTTGGGTTCTAACCTGTTGCCT (site TGTGACTCTAG) ?
*A* 0.463

*Q* Any idea what recombinant barcode read abundance (log10) was measured for TCCTATCCTTGGGTTCTAACCTGTTGCGT (site TCCCATCCTAC) ?
*A* 0.9

*Q* Any idea what recombinant barcode read abundance (log10) was measured for CAAGGTCCTTGGGTTCTAACCTGTTGCGG (site CAAGGTCCTCC) ?
*A* 2.68

*Q* Any idea what recombinant barcode read abundance (log10) was measured for GAGCAACCTTGGGTTCTAACCTGTTGCCG (site GAGCAACCTCG) ?
*A* 1.07

*Q* Any idea what recombinant barcode read abundance (log10) was measured for TTAGCCTCTTGGGTTCTAACCTGTTGCCT (site TTAGCGTCTAG) ?
*A* 0.137

*Q* Any idea what recombinant barcode read abundance (log10) was measured for TAGAACACTTGGGTTCTAACCTGTTGCCT (site AAGAACACTAG) ?
*A* 0.0955

* * *

Task for the reader: assign each of the following sequences its reported recombinant barcode read abundance (log10).
ASSAY NOTES: recombinant barcode read abundance after kanamycin selection (control-corrected) (log10(CPM+1)); higher = more efficient recombination; sequences stand for … in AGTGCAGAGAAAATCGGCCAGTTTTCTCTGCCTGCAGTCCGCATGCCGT…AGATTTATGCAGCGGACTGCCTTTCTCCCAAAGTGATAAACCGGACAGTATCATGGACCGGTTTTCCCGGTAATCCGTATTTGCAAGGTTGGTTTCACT; site = the 11-nt target
Field format: numeric only.

*Q* Any idea what recombinant barcode read abundance (log10) was measured for CCTAGACCTTGGGTTCTAACCTGTTGCCT (site CCTAGAGCTAG) ?
*A* 0.201

*Q* Any idea what recombinant barcode read abundance (log10) was measured for ACAGGTCCTTGGGTTCTAACCTGTTGCGA (site GTCATGTCTCA) ?
*A* 0

*Q* Any idea what recombinant barcode read abundance (log10) was measured for AGTAGTGCTTGGGTTCTAACCTGTTGCCT (site AGTAGTGCTAG) ?
*A* 0.0473

*Q* Any idea what recombinant barcode read abundance (log10) was measured for CGTCAGACTTGGGTTCTAACCTGTTGCCT (site CGTTAGACTAG) ?
*A* 0

*Q* Any idea what recombinant barcode read abundance (log10) was measured for CAGTTCGCTTGGGTTCTAACCTGTTGCCT (site CAGTTTGCTAG) ?
*A* 0.0585

* * *

ASSAY NOTES: recombinant barcode read abundance after kanamycin selection (control-corrected) (log10(CPM+1)); higher = more efficient recombination; sequences stand for … in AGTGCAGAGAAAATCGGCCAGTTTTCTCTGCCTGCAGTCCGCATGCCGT…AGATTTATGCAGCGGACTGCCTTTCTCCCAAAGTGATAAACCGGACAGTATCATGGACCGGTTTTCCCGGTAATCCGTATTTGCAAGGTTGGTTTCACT; site = the 11-nt target
Task for the reader: assign each of the following sequences its reported recombinant barcode read abundance (log10).
Field format: numeric only.

*Q* Any idea what recombinant barcode read abundance (log10) was measured for ACCGTACCTTGGGTTCTAACCTGTTGCCT (site ACCGTAGCTAG) ?
*A* 0.0594

*Q* Any idea what recombinant barcode read abundance (log10) was measured for TCTAAGTCTTGGGTTCTAACCTGTTGCCC (site TCTAAGTCTGG) ?
*A* 0.194

*Q* Any idea what recombinant barcode read abundance (log10) was measured for CTACGACCTTGGGTTCTAACCTGTTGCAG (site CTACGACCTCT) ?
*A* 2.56

*Q* Any idea what recombinant barcode read abundance (log10) was measured for TCATCCGCTTGGGTTCTAACCTGTTGCCT (site CCATCCACTAG) ?
*A* 0.12

*Q* Any idea what recombinant barcode read abundance (log10) was measured for TAGCCTACTTGGGTTCTAACCTGTTGCCG (site TAGGCTCCTCG) ?
*A* 0.0184

* * *

ASSAY NOTES: recombinant barcode read abundance after kanamycin selection (control-corrected) (log10(CPM+1)); higher = more efficient recombination; sequences stand for … in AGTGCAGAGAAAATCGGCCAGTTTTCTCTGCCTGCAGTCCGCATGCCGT…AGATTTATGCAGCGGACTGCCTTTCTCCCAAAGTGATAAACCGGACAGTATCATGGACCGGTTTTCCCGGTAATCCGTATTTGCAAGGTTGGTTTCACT; site = the 11-nt target
Label scheme for recombinant barcode read abundance (log10): lower than 0.2 is n, 0.2 and above is y.

*Q* Is recombinant barcode read abundance (log10) for TACAACACTTGGGTTCTAACCTGTTGCGT (site TACAACACTAC) at or above 0.2?
*A* y

*Q* Is recombinant barcode read abundance (log10) for TTCTTTCCTTGGGTTCTAACCTGTTGCCT (site TTCTATCCTAG) at or above 0.2?
*A* n

*Q* Is recombinant barcode read abundance (log10) for CAGGAACCTTGGGTTCTAACCTGTTGCCT (site GAGGAACCTAG) at or above 0.2?
*A* y

*Q* Is recombinant barcode read abundance (log10) for CAACACTCTTGGGTTCTAACCTGTTGCCT (site CGACACTCTAG) at or above 0.2?
*A* n

*Q* Is recombinant barcode read abundance (log10) for TTGGAAGCTTGGGTTCTAACCTGTTGCCT (site TTGGAAGCTAG) at or above 0.2?
*A* y

*Q* Is recombinant barcode read abundance (log10) for ATATGTACTTGGGTTCTAACCTGTTGCCG (site ATATGTACTTG) at or above 0.2?
*A* n

*Q* Is recombinant barcode read abundance (log10) for TGTCGCTCTTGGGTTCTAACCTGTTGCCT (site TGACGCTCTAG) at or above 0.2?
*A* n

*Q* Is recombinant barcode read abundance (log10) for ACAATAGCTTGGGTTCTAACCTGTTGCTG (site ACAATAGCTCA) at or above 0.2?
*A* y

*Q* Is recombinant barcode read abundance (log10) for TTGGAAGCTTGGGTTCTAACCTGTTGCCT (site TTGGGAGCTAG) at or above 0.2?
*A* y

*Q* Is recombinant barcode read abundance (log10) for TACTAAGCTTGGGTTCTAACCTGTTGCTT (site TACTAAGCTAA) at or above 0.2?
*A* n
